B1: Transcription factor SOX-11, residues 50 to 117; numbered along this chain, P35716 (parent)
chain: KRPMNAFMVWSKIERRKIMEQSPDMHNAEISKRLGKRWKMLKDSEKIPFIREAERLRLKHMADYPDYK

Variants of: B1
run_description: abundance fitness (aPCA) (normalised: wild type 0, dead -1); higher = more abundant; growth selection in yeast, the domain comes from the species named
condition_parameters: Homo sapiens
Criterion: abundance fitness meeting or surpassing -0.08. Met: true (1). Not met: false (0).

Request: Say whether K42F shows abundance fitness of -0.08 or more.
Result: false (0)

Request: L41G , same question.
Result: false (0)

Request: E20Q , same question.
Result: false (0)

Request: W38Q , same question.
Result: true (1)

Request: N27Q , same question.
Result: true (1)
